experiment: protein stability index of a GFP-peptide fusion (yeast GPS) (PSI 1-4); higher = more stable; sorted into four equal gates, so the index is relative within each strain; conditions: san1∆
// reported protein stability index for each item listed
Give the value as a plain number.

Known protein stability index results, listed for orientation:
SKLMPVLKSSVYEYVIA [RPC82] | 1.25
CITLDQLAVRAPKGQNT [RPL18A] | 2.94
DMENMADEQKRSTDVWY [ARP7] | 2.62
FEEDEKNSDVWFLDHNY [RPN8] | 1.5
LKALSHHYNPKTKKLNL [BRR2] | 2.33
EKLKQFSWISVVNDLVG [SIR3] | 1.53

Given the entry EVYTKTIEVLDEVITEG [POP7] , report its measured protein stability index.
3.15

Given the entry AHIEKQSLDTIGGSDAA [RPO21] , report its measured protein stability index.
3.32
